Just for reference, the RNAGym collection of RNA variant scans (doi:10.7554/elife.80360) is where these values come from.

Task for the reader: assign each of the following variants its reported self-cleavage.
B1: HDV Ribozyme (parent)
chain: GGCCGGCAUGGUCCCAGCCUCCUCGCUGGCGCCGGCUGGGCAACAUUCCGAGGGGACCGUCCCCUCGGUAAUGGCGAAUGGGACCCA

- Variants of: B1
- protocol notes: self-cleavage, relative activity (ratio to wild type); higher = more cleavage; co-transcriptional
Form field (numeric): enter value without unit.

Ask: I'd like to know its self-cleavage. The variant in question is G10A C57A
Result: 0.727

Ask: And the next one, C49G U60C ?
Result: 0.831

Ask: And the next one, G11C C32U ?
Result: 0.192

Ask: And the next one, G29A G74A ?
Result: 0.0773

Ask: And the next one, U23C C75G ?
Result: 0.148

Ask: And the next one, A8C A87G ?
Result: 0.674

Ask: And the next one, C15G G73C ?
Result: 0.231

Ask: And the next one, C36U G39C ?
Result: 0.119

Ask: And the next one, A71U A78C ?
Result: 0.188

Ask: And the next one, G35C G38U ?
Result: 0.0875

Ask: And the next one, G2C C41U ?
Result: 0.0475

Ask: And the next one, G25C C30G ?
Result: 0.0959

Ask: And the next one, G34U C57A ?
Result: 0.114

Ask: And the next one, G1A C30A ?
Result: 0.0875

Ask: And the next one, G29A C49G ?
Result: 0.225

Ask: And the next one, G10C C75U ?
Result: 0.109

Ask: And the next one, G31U A51C ?
Result: 0.462

Ask: And the next one, C7A A51U ?
Result: 0.538

Ask: And the next one, U20G C64U ?
Result: 0.291

Ask: And the next one, G38C A71G ?
Result: 0.166

Ask: And the next one, G35C A56C ?
Result: 0.302

Ask: And the next one, C19U C62G ?
Result: 0
